# Tested on: NCI-H522 lung
# Procedure Text: NCI-60 one-dose screen, 48 h
# Condition Summary: 10 µM unless noted
This is part of a sample that, as a whole, favours compounds with a hit. Of some 83,000 tested, about 20% had one in any assay. Active and inactive are the calls of the source. Rule for the calls: active = growth percent below 10; inactive = the rest.
Please state which outcome applies, choosing from true (1) for active, false (0) for inactive

Some solved entries appear below for comparison.
>>> category("Cc1c(O)c(=O)ccn1-c1nc2ccccc2s1")
"false (0)"
>>> category("N#C/C(=C/c1ccc(O)c([N+](=O)[O-])c1)c1nc(-c2ccc([N+](=O)[O-])cc2)cs1")
"false (0)"

For the next question, use this compound.
input: State the result this test recorded for COC(=O)c1oc2c(C(=O)/C=C/c3ccc(OC)cc3)c(OCCCN3CCCCC3)ccc2c1C .
output: true (1)

====

# Tested on: OVCAR-4 ovarian
# Procedure Text: NCI-60 one-dose screen, 48 h (100 = growth as untreated, 0 = no growth, -100 = all killed)
# Condition Summary: 10 µM unless noted
# Description: Growth inhibition of the OVCAR-4 human tumor cell line is measured as a screen for anti-cancer activity. Cells are grown in 96 well plates and exposed to the test compound for 48 hours. Compounds are tested at a single concentration, which is 10^-5 M for most compounds. The reported endpoint is percent growth (GI% or GIPRCNT), where numbers from 0 - 100% represent growth inhibition, and numbers from -100% - 0 represent cell death. For example, a value of 40 represents 60% growth inhibition. […]
Compounds without any hit were thinned out: in the full panel of roughly 83,000, 20% have a hit.
Outcome: TRUE for growth of at least 50%; FALSE for anything lower.

>>> category("Cc1c(O)c(=O)ccn1-c1nc2ccccc2s1")
"TRUE"
>>> category("OCCNc1nc(NCCO)nc(Nc2ccc(C3=NN(c4cc(Cl)cc(Cl)c4)C(c4ccc(C(F)(F)F)cc4)C3)cc2)n1 (configuration not stated)")
"TRUE"
>>> category("Sc1cccc2cccnc12")
"FALSE"

input: Could you please find out whether O=C(Nc1ccc2ncnc(Nc3ccc(F)c(Cl)c3)c2c1)c1ccccc1 has growth that meets 50% or exceeds it?
output: FALSE

input: Please indicate if the recorded growth for Cc1nn(-c2ccc(-c3ccc(OC(F)(F)F)cc3)cc2)c2nc(-c3ccccc3)nc(N)c12 meets or exceeds 50%.
output: TRUE

input: I'd appreciate it if you could say whether N#Cc1c(-c2ccc(F)cc2)c(C#N)c2c(C#N)c(N)nn2c1N has growth at least equal to 50%.
output: TRUE

input: Decide: is the reported value of growth for O=[N+]([O-])c1ccc(Oc2ccc(-c3ccccc3)cc2)cc1 equal to or greater than 50%?
output: TRUE

input: Check the entry C=C1C(=O)O[C@H]2[C@H]1CC/C(COC(=O)n1ccnc1)=C\CC[C@@]1(C)O[C@@H]21 : does growth equal or exceed 50%?
output: TRUE

input: Form field: growth at least 50%? Entry: CN(C)CCCn1c2c(c3cc(-c4ccco4)ccc3c1=O)C(=O)c1ccccc1-2
output: TRUE

input: Quick check, growth >= 50%? COc1ccc(N(C)c2nc(Cl)nc3ccn(C)c23)cc1
output: FALSE

input: Is it the case that CCCCn1c(=O)c(/C=C/C(=O)/C=C/c2cc3ccccc3n(CCCC)c2=O)cc2ccccc21 has growth reaching or exceeding 50%?
output: FALSE

input: Please check the record C=C(C)[C@@H]1CC[C@]2(C(=O)OCCOCCOCC[P+](c3ccccc3)(c3ccccc3)c3ccccc3)CC[C@]3(C)[C@H](CC[C@@H]4[C@@]5(C)CC[C@H](OC(=O)C(Cl)Cl)C(C)(C)[C@@H]5CC[C@]43C)[C@@H]12 and state if its growth is at or above 50%.
output: FALSE

input: Entry CCCn1c2cc(OCc3cn(-c4ccc(Br)cc4)nn3)ccc2c2ccnc(C)c21 : is its growth no less than 50%?
output: FALSE

====

# Test system: EKVX NSCLC
# Procedure Text: NCI-60 one-dose screen, 48 h (100 = growth as untreated, 0 = no growth, -100 = all killed)
# Condition Summary: 10 µM unless noted
About 83,000 compounds went through this panel and 20% of them were active in at least one assay; those are over-represented in the sample as a whole. Active and inactive are the calls of the source. How the source made its calls: active means growth percent below 10; inactive means the rest.
As shown below, each of these compounds has a reported growth value.

Use these answered entries as a reference point.
>>> measured_result("Cc1nccc2c3ccc(OCc4cn(-c5ccc(Br)cc5)nn4)cc3n(CC(C)C)c12")
"59.5% (inactive)"
>>> measured_result("Cc1c(Cl)cccc1NC(=O)c1sc2nc3c(cc2c1N)COCC3")
"60.3% (inactive)"

input: Record lookup: for EKVX NSCLC, what growth belongs to C=C1C(=O)O[C@H]2[C@H]1CC/C(COC(=O)n1ccnc1)=C\CC[C@@]1(C)O[C@@H]21 ?
output: 80.9% (inactive)

input: Requested read-out growth, target or system EKVX NSCLC, entry CC(=O)Nc1ccc2c(c1)Cc1cc(F)ccc1-2
output: 104% (inactive)

input: // map O=c1[nH]c2ccccc2cc1-c1nc2ccc(Cl)cc2[nH]1 to recorded growth (system: EKVX NSCLC)
output: 22.6% (inactive)

input: Provide value of growth for this record tested with EKVX NSCLC: COc1ccc2[nH]c(=O)c(/C=C/C(=O)/C=C/c3ccc(O)c(OC)c3)cc2c1
output: 59.4% (inactive)

input: Query growth on EKVX NSCLC for CC1CCCN(CCCCCOc2ccc3oc4ccc(Cl)cc4c(=O)c3c2)C1 (stereo not drawn)
output: 78.3% (inactive)

input: Request body: readout growth, system EKVX NSCLC, query COc1cc2c(cc1OC)C(Sc1ccc(Cl)cc1)c1c(nc(N)c(C#N)c1N)O2 (stereo not drawn) . Return the value.
output: 1.68% (active)

input: For the record COc1ccccc1C(=O)/C=C/c1cc2cccc(OC)c2[nH]c1=O , what value of growth is listed for EKVX NSCLC?
output: 7.34% (active)

input: Short answer please: growth, EKVX NSCLC, entry C=C1C(=O)O[C@H]2[C@H]1CC/C(COC(=O)CCCCCCCC(=O)OC/C1=C/CC[C@@]3(C)O[C@H]3[C@H]3OC(=O)C(=C)[C@@H]3CC1)=C\CC[C@@]1(C)O[C@@H]21
output: 18.5% (inactive)

input: Query growth on EKVX NSCLC for Cc1cc(C)n(-c2nc(-c3cccs3)c(C#N)c(=O)[nH]2)n1
output: 95.5% (inactive)

input: Enter reported growth observed with EKVX NSCLC for CC(=O)OCC1SC(OC(C)=O)C(NC(=O)/C=C/CCl)C(OC(C)=O)C1OC(C)=O (stereo not drawn)
output: 102% (inactive)

input: Please state recorded growth (tested on EKVX NSCLC) of COc1ccc2[nH]c3nc4cnccc4cc3c2c1
output: 72.2% (inactive)

====

# Tested on: MDA-MB-435 melanoma
# Procedure Text: NCI-60 one-dose screen, 48 h (100 = growth as untreated, 0 = no growth, -100 = all killed)
# Condition Summary: 10 µM unless noted
The panel holds about 83,000 compounds, 20% with a hit somewhere; the sample as a whole holds those more often.
Output schema: class label derived from growth. Mapping: category 1: < 10%; category 2: ≥ 10% and < 70%; category 3: ≥ 70%

>>> category("CCc1c(C(=O)N[C@@H](C(=O)OCc2ccccc2)C(C)O)[nH]c2ccc(Cl)cc12 (some centres undefined)")
"category 3"
>>> category("CC(=O)ON1CCCC(P(=O)(OCOC(=O)C(C)(C)C)OCOC(=O)C(C)(C)C)C1=O (centres undefined)")
"category 2"
>>> category("C[C@H](Oc1cc(-c2cnn(C3CCNCC3)c2)cnc1N)c1c(Cl)ccc(F)c1Cl")
"category 2"
>>> category("Cc1nccc2c3ccc(OCc4cn(-c5ccc(Cl)cc5)nn4)cc3n(CC(C)C)c12")
"category 2"

input: Field: class (growth) — entry: O=S(=O)(O)c1ccc(N=NSc2ccc3ccccc3c2)cc1
output: category 3

input: Sort into band: COCCOCCOCc1n(Cc2ccc3ccccc3c2)c2ccccc2[n+]1Cc1ccc2ccccc2c1
output: category 1

====

Catalogue of growth values
# Test system: LOX IMVI melanoma
# Procedure Text: NCI-60 one-dose screen, 48 h (100 = growth as untreated, 0 = no growth, -100 = all killed)
# Condition Summary: 10 µM unless noted
This is part of a sample that, as a whole, favours compounds with a hit. Of some 83,000 tested, about 20% had one in any assay.
Answer format: numeric, % implied, no suffix.

Reference set (3 entries):
>>> measured_result("COc1cc(NC(=O)Nc2cnc(Nc3ccc(N4CCOCC4)cc3)nc2Oc2ccc(F)cc2)cc(OC)c1")
91
>>> measured_result("CCCCC1=c2c([nH]c3ccc(OC)cc23)=NC2C=CC=NC12 (centres undefined)")
91.4
>>> measured_result("O=[N+]([O-])c1ccc(N=Nc2c(O)c(N=Nc3cc([N+](=O)[O-])cc([N+](=O)[O-])c3O)cc(N=Nc3cc(S(=O)(=O)O)cc4cc(S(=O)(=O)O)cc(O)c34)c2O)cc1")
90.1

# next compound below
input: # query: growth of entry N#CC(C#N)=C1NC(c2ccccc2)=C(c2ccccc2)C(c2ccccc2Cl)=C1C#N
output: 91.5

Reference for the values: PubChem BioAssay (NCI)
